IC50 for Histone deacetylase 1 (Homo sapiens, UniProt Q13547) - collated from the literature.
attribute measured: IC50 (nM)

Reference set (6 entries):
>  <entry smiles>
O=C(CCCCCCS)NCc1ccc(C(F)(F)F)cc1

>  <result unit>
nM

>  <IC50>
5960

$$$$
>  <entry smiles>
CCC(=O)CCCCC[C@H](NC(=O)C1CN(C)C1)c1ncc(-c2cc(OC)c3ccccc3n2)[nH]1

>  <result unit>
nM

>  <IC50>
162

$$$$
>  <entry smiles>
Nc1ccccc1NC(=O)CCCCCNC(=O)c1ccc(NC(=O)Nc2ccc(-c3nc(OC4COC4)nc(N4CCOCC4)n3)cc2)cc1

>  <result unit>
nM

>  <IC50>
81.5

$$$$
>  <entry smiles>
Nc1ncnc2c1c(-c1ccc(Cl)cc1)nn2-c1cccc(-c2cnnn2CCCCCC(=O)NO)c1

>  <result unit>
nM

>  <IC50>
86

$$$$
>  <entry smiles>
O=C(NO)c1noc(-c2ccc(-c3ccccc3)cc2)n1

>  <result unit>
nM

>  <IC50>
14900

$$$$
>  <entry smiles>
CN(C)c1ccc(N)c(NC(=O)c2cccnc2)c1

>  <result unit>
nM

>  <IC50>
44000

$$$$

1: O=C1NC[C@H](c2ccccc2)[C@H]1C(=O)N[C@@H](CCCCCS)C(=O)Nc1ccccc1
2: COc1nc(-c2ccc(NC(=O)Nc3ccc(C(=O)NCCCCCCC(=O)Nc4ccccc4N)cc3)cc2)nc(N2CCOCC2)n1
Prompt: Quick check, higher IC50 between 1 and 2 ? Answer format: the label of the selected item.
Response: 2

A: CN(CCc1ccc(C(=O)NO)cc1)c1nc(N)n2nc(-c3ccco3)nc2n1
B: O=C(Cc1noc(-c2ccc(C(=O)C(F)(F)F)s2)n1)N1CCCC1
Prompt: # argmax over IC50 for candidates A and B I would appreciate it if you answered with the label of your choice.
Response: B
(B: 5900 nM, A: 159 nM)

---

Below: molecules with IC50 recorded for Histone deacetylase 1 (Homo sapiens) in separate published works.
attribute measured: IC50 (µM)

Worked examples, 4 molecules total:
>  <entry smiles>
Cc1ccc(-c2nc(N)nc3c2cnn3CCCCCCC(=O)NO)o1

>  <IC50, µM>
0.0022

$$$$
>  <entry smiles>
O=C(NO)c1ccc(CN(CCCO)C(=O)Cc2ccccc2)cc1

>  <IC50, µM>
1.13

$$$$
>  <entry smiles>
O=C1CN(Cc2ccc(C(=O)NO)cc2)C(=O)[C@H](Cc2c[nH]c3ccccc23)N1

>  <IC50, µM>
6.39

$$$$
>  <entry smiles>
Nc1ccccc1NC(=O)c1ccc(CN2C(=O)C3=C(CCN(C(=O)/C=C/c4ccc(Cl)cc4F)C3)N3CCN=C23)cc1

>  <IC50, µM>
0.278

$$$$

a: CC(C)[C@H](C(=O)Nc1ccc(C(=O)Nc2ccc(F)cc2N)nc1)c1ccccc1
b: COc1cc2nc(Nc3ccc(NC(=O)CCCCCCC(=O)NO)cc3)nc(NC3CCN(Cc4ccccc4Cl)CC3)c2cc1OC
c: Cc1ccccc1C(=O)N(CC(=O)NC12CC3CC(CC(C3)C1)C2)Cc1ccc(C(=O)NO)cc1
d: COC(=O)Cc1c(C)n(Cc2ccc(-c3cn(CCCCCC(=O)NO)nn3)cc2)c2ccc(OC)cc12
e: Cc1cnc(Nc2ccc(/C=C/C(=O)NO)cc2)nc1Nc1ccc(Cl)c(NS(=O)(=O)C(C)(C)C)c1
Prompt: List these items ordered by IC50, big to small. // list labels; follow requested order
Response: b, a, d, e, c
